- Procedure Text: Human HepG2 cell viability assay in 384 well format
- Format: toxicity, cell-based
- Design: dose 125 nL, time 70.5 hour; concentration not given beside the values
- Assay Context: HepG2 cells, read-out: Inhibition
Recorded Metric: cytotoxicity at 70.5 h (%)
The figure you give is taken to be in %; do not add the unit.

Take a look at these entries with their results.
Compound: CNc1ncccc1CN1CCCCC1c1cc(C)n2ccnc2n1 (stereo unspecified)
Observed Value: -5.95
//
Compound: CC(=O)Nc1nc(C(=O)NC(C)c2ccc3c(c2)OCCO3)cs1 (stereo unspecified)
Observed Value: -11.4
//
Compound: CNC(=O)CN1CCCC(Cc2ccccc2OC)C1 (stereo unspecified)
Observed Value: 5.69
//
Compound: CC(C)[C@H]1CN(CCCO)C[C@@H]1NC(=O)CCS(C)(=O)=O
Observed Value: -3.16
//
Compound: c1cnc(N2CCN(C3CCC[C@@H]4CN(CC5CC5)C[C@H]34)CC2)nc1 (stereo partly specified)
Observed Value: -1.3

Query: Give its cytotoxicity at 70.5 h value. Item: COc1ccc(CN2CCc3nc(C4CCCCN4C)ncc3C2)cc1 (stereo unspecified)
Response: -10.4

Query: Give its cytotoxicity at 70.5 h value. Item: CC(NC1(CNC(=O)OC(C)(C)C)CCOCC1)c1ccccc1 (stereo unspecified)
Response: -5.89

Query: Give its cytotoxicity at 70.5 h value. Item: `CC(C)(C)c1cc(CN2CC[C@@H](NC(=O)c3cccnc3)[C@H](O)C2)n[nH]1`
Response: 0.738

Query: Give its cytotoxicity at 70.5 h value. Item: Cc1ccc2c(c1)C(NCc1nnc3n1CCCCC3)CCCO2 (stereo unspecified)
Response: 11.8

Query: Give its cytotoxicity at 70.5 h value. Item: COc1ccc(C2CCCN2C(=O)NCCNc2ccccn2)cc1 (stereo unspecified)
Response: -19.3

Query: Give its cytotoxicity at 70.5 h value. Item: `O=C(NCC1CCCCC1)N1C[C@H]2C[C@H](C(=O)N3CCCC3)[C@@H](C1)O2`
Response: -1.84

###

Some compounds, each annotated with its measured cytotoxicity at 70.5 h.
- Procedure Text: Human HepG2 cell viability assay in 384 well format
- Assay type: toxicity, cell-based
- Set-up: dose 125 nL, time 70.5 hour; concentration not given beside the values
- Assay Context: HepG2 cells, read-out: Inhibition
The figure you give is taken to be in %; do not add the unit.

Take a look at these entries with their results.
Compound: c1cc(OCc2ccc3c(c2)OCO3)ccc1CNC1CC1
cytotoxicity at 70.5 h (%): 48

Compound: CN(C)CCN1CCCC12CCN(Cc1nccn1C)CC2
cytotoxicity at 70.5 h (%): -0.128

Compound: Cc1cc(-c2cnc(N3CCSCC3)nc2C(C)C)on1
cytotoxicity at 70.5 h (%): -0.852

Compound: NC(=O)NCC(=O)N1CCCC(c2nccn2Cc2ccncc2)C1 (configuration not stated)
cytotoxicity at 70.5 h (%): -1.01

Compound: Cc1cc(-c2cc(S(=O)(=O)N3C[C@H](C4CC4)[C@@H](N)C3)c(C)s2)on1
cytotoxicity at 70.5 h (%): 19.4

Compound: CN(C)C(C(=O)NCC1(O)CCCCC1)c1cccc(F)c1 (configuration not stated)
cytotoxicity at 70.5 h (%): -2.16

Query: Give its cytotoxicity at 70.5 h value. Item: O=C1CC2(CCN(Cc3cccs3)C2)CN1c1cccc(F)c1 (configuration not stated)
Response: -11

Query: Give its cytotoxicity at 70.5 h value. Item: O=S(=O)(N1CCOCC1)N1CCOC(CCc2ccccc2)C1 (configuration not stated)
Response: -4.48

Query: Give its cytotoxicity at 70.5 h value. Item: `Cc1nccc(N2CCC(Cc3cccc(C(=O)O)c3)CC2)n1`
Response: -6.88

Query: Give its cytotoxicity at 70.5 h value. Item: CCN1CC(=O)NCC12CCN(C(=O)c1ccno1)C2 (configuration not stated)
Response: 2.94

Query: Give its cytotoxicity at 70.5 h value. Item: `CCOCC(=O)N1Cc2[nH]nc(COCC3CC3)c2C1`
Response: 0.817

Query: Give its cytotoxicity at 70.5 h value. Item: `O=C(c1cccnc1N1CCN(CCO)CC1)N1CCCC1`
Response: -1.63

###

- Procedure Text: Human HepG2 cell viability assay in 384 well format
- Type: toxicity, cell-based
- Set-up: dose 125 nL, time 70.5 hour; concentration not given beside the values
- Assay Context: HepG2 cells, read-out: Inhibition
Recorded Metric: cytotoxicity at 70.5 h (%)
The figure you give is taken to be in %; do not add the unit.

Molecule: CO[C@H]1C(=O)N(C)C2(CCNCC2)[C@@H]1C(=O)Nc1ccccc1
Unit Abbreviation: %
Observed Value: -10.2

Query: Give its cytotoxicity at 70.5 h value. Item: O=C(N1CCOCC1)N1CCCC2(CCCNC2)C1 (centres undefined)
Response: 8.83

Query: Give its cytotoxicity at 70.5 h value. Item: `COc1ccc(C(=O)NCCC(N)=O)c(I)c1`
Response: 24.4

Query: Give its cytotoxicity at 70.5 h value. Item: `CCc1nc(NCCCn2cccn2)c2c(n1)c(C)nn2CC`
Response: 14.8

Query: Give its cytotoxicity at 70.5 h value. Item: `Cc1ccc(CN2CC[C@@H]3[C@@H]2CCN3C(=O)Cc2cccs2)o1`
Response: -5.34

Query: Give its cytotoxicity at 70.5 h value. Item: `Cn1nc(CN2CCCC2)c2c1CN(CC1CC1)CC2`
Response: 2.77

###

Some compounds, each annotated with its measured cytotoxicity at 70.5 h.
- Procedure Text: Human HepG2 cell viability assay in 384 well format
- Assay type: toxicity, cell-based
- Design: dose 125 nL, time 70.5 hour; concentration not given beside the values
- Assay Context: HepG2 cells, read-out: Inhibition
The figure you give is taken to be in %; do not add the unit.

Take a look at these entries with their results.
Compound: CN1CCCCC1CCC(=O)NCCCn1nccc1C1CC1 (centres undefined)
Recorded Metric: cytotoxicity at 70.5 h
Observed Value: -11.4
//
Compound: Cc1nccn1C1CCCN(C(=O)c2cnc[nH]2)C1 (centres undefined)
Recorded Metric: cytotoxicity at 70.5 h
Observed Value: -0.305
//
Compound: CC(=O)N1CCC(c2nc3ccc(NC4CCC4)cn3n2)CC1
Recorded Metric: cytotoxicity at 70.5 h
Observed Value: -5.56
//
Compound: CC(=O)Nc1ncc(S(=O)(=O)N2CCOCC2)s1
Recorded Metric: cytotoxicity at 70.5 h
Observed Value: -1.73
//
Compound: O=C(NCCNc1ncccn1)c1cnc(-c2ccccc2)nc1
Recorded Metric: cytotoxicity at 70.5 h
Observed Value: -2.38

Query: Give its cytotoxicity at 70.5 h value. Item: OCCOCCNCC1(c2ccc(F)cc2)CCOC1 (centres undefined)
Response: -0.024

Query: Give its cytotoxicity at 70.5 h value. Item: CC(=O)N1CCCC1c1nnn2cc(NCc3cccnc3)ccc12 (centres undefined)
Response: -18.3

Query: Give its cytotoxicity at 70.5 h value. Item: `Cc1cc(C(=O)NCCCn2nccc2C2CC2)c(=O)[nH]c1C`
Response: -14.7

###

Some molecules, each annotated with its measured cytotoxicity at 70.5 h.
- Procedure Text: Human HepG2 cell viability assay in 384 well format
- Assay type: toxicity, cell-based
- Design: dose 125 nL, time 70.5 hour; concentration not given beside the values
- Assay Context: HepG2 cells, read-out: Inhibition
The figure you give is taken to be in %; do not add the unit.

Molecule: CCCN1CCC(N2CCC(Cn3cc(CC(C)O)nn3)CC2)CC1 (stereo unspecified)
cytotoxicity at 70.5 h [%]: -6.23

Query: Give its cytotoxicity at 70.5 h value. Item: Cc1ccc(CN2CCC3(CCC3NC(=O)c3ccn(C)c3)CC2)s1 (stereo unspecified)
Response: 0.0423

Query: Give its cytotoxicity at 70.5 h value. Item: `O=C(c1ccc(-n2ccnn2)cc1)N(CC1CC1)c1cccnc1`
Response: 5.29

Query: Give its cytotoxicity at 70.5 h value. Item: Cc1nc(C2CCCN2Cc2nnc(C3CC3)o2)no1 (stereo unspecified)
Response: 0.406

Query: Give its cytotoxicity at 70.5 h value. Item: `CC(=O)NCC(=O)N1C[C@H](OCc2cccnc2)[C@H]2COC[C@H]21`
Response: 3.33

Query: Give its cytotoxicity at 70.5 h value. Item: COC1COC2(CCN(C(=O)c3ncccn3)CC2)C1 (stereo unspecified)
Response: 14.8

Query: Give its cytotoxicity at 70.5 h value. Item: CN1CCNC(=O)C1CC(=O)NCCc1cnn(-c2ccccc2)c1 (stereo unspecified)
Response: 19.9

###

- Procedure Text: Human HepG2 cell viability assay in 384 well format
- Assay type: toxicity, cell-based
- Design: dose 125 nL, time 70.5 hour; concentration not given beside the values
- Assay Context: HepG2 cells, read-out: Inhibition
Some molecules, each annotated with its measured cytotoxicity at 70.5 h.
The figure you give is taken to be in %; do not add the unit.

Take a look at these entries with their results.
Molecule: O=C(c1cc(F)ccc1O)N1CCN(C(=O)C2CCC2)CC1
Unit Abbreviation: %
Observed Value: -3.26
--
Molecule: O=C(O)c1cccc2c(Br)cccc12
Unit Abbreviation: %
Observed Value: -0.692
--
Molecule: Cc1ccc(S(=O)(=O)N(C)c2ccsc2C(=O)NCC(C)C)cc1
Unit Abbreviation: %
Observed Value: 45.4
--
Molecule: CSc1ccc(CNC2CCN(CCc3ccncc3)CC2)cc1
Unit Abbreviation: %
Observed Value: -1.82
--
Molecule: Cc1cnc(N2CCN(C)CC2)nc1-c1ccnn1C
Unit Abbreviation: %
Observed Value: -13.9

Query: Give its cytotoxicity at 70.5 h value. Item: CC(CC(=O)NS(=O)(=O)c1ccc2c(c1)OCCO2)c1ccc(F)cc1 (stereo unspecified)
Response: -1.76

Query: Give its cytotoxicity at 70.5 h value. Item: c1cncc(C2COC3(CCN(Cc4nccs4)CC3)C2)c1 (stereo unspecified)
Response: -9.69

Query: Give its cytotoxicity at 70.5 h value. Item: `CN(Cc1ccccc1CN1CCCC1)C(=O)c1c(O)cccc1O`
Response: 7.79

Query: Give its cytotoxicity at 70.5 h value. Item: CC(c1nc(C(C)(C)C)no1)S(=O)(=O)CC(=O)N1CCCC1 (stereo unspecified)
Response: -2.18

Query: Give its cytotoxicity at 70.5 h value. Item: `N[C@@H](C(=O)N1CCN(c2ccccc2Cl)C(=O)C1)c1ccccc1`
Response: -14.1

Query: Give its cytotoxicity at 70.5 h value. Item: CN(C(=O)Cn1nc(-c2ccc(Cl)cc2)ccc1=O)C1CCS(=O)(=O)C1 (stereo unspecified)
Response: -21.1

Attribution: ChEMBL document CHEMBL3507680
